This collection of values is drawn from patent US11866720B2.

Exercise: state measured log10(IC50) for each of the compounds provided.
# subject of test: recombinant wildtype and mutated PPO (Amaranthus PPO2: PPX2L_WC SEQ ID NO 2, PPX2L_AC SEQ ID NO 4, dG210 SEQ ID NO 6 & 8) (Amaranthus tuberculatus, UniProt Q0NZW9, D133A/F420I/R128Y)
# Sequence (Q0NZW9 1-534 R128Y/D133A/F420I): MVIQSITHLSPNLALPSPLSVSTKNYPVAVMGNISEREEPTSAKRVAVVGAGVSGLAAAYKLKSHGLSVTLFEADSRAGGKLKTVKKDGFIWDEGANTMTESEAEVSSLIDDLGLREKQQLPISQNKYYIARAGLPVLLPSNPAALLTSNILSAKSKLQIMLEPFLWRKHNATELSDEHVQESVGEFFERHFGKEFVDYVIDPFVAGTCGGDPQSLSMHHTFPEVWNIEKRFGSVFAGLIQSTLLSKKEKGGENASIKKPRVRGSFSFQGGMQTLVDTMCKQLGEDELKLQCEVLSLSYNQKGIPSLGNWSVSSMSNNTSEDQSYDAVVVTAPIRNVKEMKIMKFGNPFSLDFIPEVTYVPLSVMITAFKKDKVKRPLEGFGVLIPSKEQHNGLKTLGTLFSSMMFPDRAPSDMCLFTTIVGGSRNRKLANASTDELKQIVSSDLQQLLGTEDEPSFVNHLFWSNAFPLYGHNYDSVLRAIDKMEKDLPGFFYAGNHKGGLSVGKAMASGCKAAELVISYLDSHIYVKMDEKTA
# protocol text: biochemical
# stated conditions: IC50 (M)
A value of 2 here means IC50 of 100 in M, since values are log10.

For orientation, consider the following solved cases.
CCOC(=O)C(Cl)Cc1cc(-n2nc(C)n(C(F)F)c2=O)c(F)cc1Cl (centres unmarked)    -6.55
CCOc1cc(Oc2ccc(C(F)(F)F)cc2Cl)ccc1[N+](=O)[O-]    -5.93
CCOC(=O)C(C)OC(=O)c1cc(Oc2ccc(C(F)(F)F)cc2Cl)ccc1[N+](=O)[O-] (centres unmarked)    -7.32
COC(Oc1ccccc1Oc1cc(-n2c(=O)cc(C(F)(F)F)n(C)c2=O)c(F)cc1Cl)C(=O)OC1CCCCC1 (centres unmarked)    -6.17
C#CCN1C(=O)C(F)(F)Oc2cc(F)c(-n3c(=O)cc(C(F)(F)F)n(C)c3=O)cc21    -6.35

Q: Param item = CCOC(=O)COc1ncccc1Oc1cc(-n2c(=O)cc(C(F)(F)F)n(C)c2=O)c(F)cc1Cl ; retrieve measured log10(IC50).
A: -6.33

* * *

Exercise: state measured IC50 for each of the compounds provided.
# subject of test: recombinant wildtype and mutated PPO (Amaranthus PPO2: PPX2L_WC SEQ ID NO 2, PPX2L_AC SEQ ID NO 4, dG210 SEQ ID NO 6 & 8) (Amaranthus tuberculatus, UniProt Q0NZW9, D133A/F420I/R128I)
# Sequence (Q0NZW9 1-534 R128I/D133A/F420I): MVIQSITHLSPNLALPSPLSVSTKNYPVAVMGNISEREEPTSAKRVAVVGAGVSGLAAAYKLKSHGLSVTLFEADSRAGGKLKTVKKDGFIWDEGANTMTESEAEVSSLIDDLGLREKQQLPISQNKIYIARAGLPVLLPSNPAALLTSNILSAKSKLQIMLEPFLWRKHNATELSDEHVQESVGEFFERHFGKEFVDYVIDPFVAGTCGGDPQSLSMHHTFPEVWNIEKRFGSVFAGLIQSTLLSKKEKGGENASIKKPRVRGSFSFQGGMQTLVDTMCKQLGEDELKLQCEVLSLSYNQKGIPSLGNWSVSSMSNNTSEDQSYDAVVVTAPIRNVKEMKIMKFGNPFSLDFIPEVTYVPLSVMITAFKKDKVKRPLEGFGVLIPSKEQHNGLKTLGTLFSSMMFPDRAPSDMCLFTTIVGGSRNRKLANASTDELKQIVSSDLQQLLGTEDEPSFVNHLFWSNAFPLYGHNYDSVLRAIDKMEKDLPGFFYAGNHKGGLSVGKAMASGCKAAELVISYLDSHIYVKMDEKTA
# protocol text: biochemical
# stated conditions: IC50 (M)
Give bare numbers, in M.

COC(Oc1ccccc1Oc1cc(-n2c(=O)cc(C(F)(F)F)n(C)c2=O)c(F)cc1Cl)C(=O)OC1CCCCC1 (stereo not drawn)    1.82e-06
C#CCN1C(=O)C(F)(F)Oc2cc(F)c(-n3c(=O)n(C)c(=S)n(C)c3=O)cc21    1.38e-07

Please turn your attention to the following entry.
Q: Param item = COC(=O)C(OC)Oc1ccccc1Oc1cc(-n2c(=O)cc(C(F)(F)F)n(C)c2=O)c(F)cc1Cl (stereo not drawn) ; retrieve measured IC50.
A: 2.27e-08

* * *

# subject of test: recombinant wildtype and mutated PPO (Amaranthus PPO2: PPX2L_WC SEQ ID NO 2, PPX2L_AC SEQ ID NO 4, dG210 SEQ ID NO 6 & 8) (Amaranthus tuberculatus, UniProt Q0NZW9, D133A/F420M/R128V)
# Sequence (Q0NZW9 1-534 R128V/D133A/F420M): as the sequence (Q0NZW9 1-534 R128Y/D133A/F420I) above, with Y128V, I420M counted along it
# protocol text: biochemical
# stated conditions: IC50 (M)
endpoint name: IC50

For orientation, consider the following solved cases.
O=C(O)c1cc(Oc2ccc(C(F)(F)F)cc2Cl)ccc1[N+](=O)[O-]    ≥ 1e-05 M
C#CCN1C(=O)COc2cc(F)c(N3C(=O)C4=C(CCCC4)C3=O)cc21    ≥ 1e-05 M

Please turn your attention to the following entry.
Q: Param item = CS(=O)(=O)NC(=O)c1cc(Oc2ccc(C(F)(F)F)cc2Cl)ccc1[N+](=O)[O-] ; retrieve measured IC50.
A: ≥ 1e-05 M

* * *

# subject of test: recombinant wildtype and mutated PPO (Amaranthus PPO2: PPX2L_WC SEQ ID NO 2, PPX2L_AC SEQ ID NO 4, dG210 SEQ ID NO 6 & 8) (Amaranthus tuberculatus, UniProt Q0NZW9, D133A/F420M/R128Y)
# Sequence (Q0NZW9 1-534 R128Y/D133A/F420M): as the sequence (Q0NZW9 1-534 R128Y/D133A/F420I) above, with I420M counted along it
# protocol text: biochemical
# stated conditions: IC50 (M)
endpoint name: IC50

For orientation, consider the following solved cases.
CS(=O)(=O)NC(=O)c1cc(Oc2ccc(C(F)(F)F)cc2Cl)ccc1[N+](=O)[O-] [Fomesafen, fomesafen]    ≥ 1e-05 M
C#CCN1C(=O)C(F)(F)Oc2cc(F)c(N3C(=O)C4=C(CCCC4)C3=O)cc21    ≥ 1e-05 M
O=C(O)c1cc(Oc2ccc(C(F)(F)F)cc2Cl)ccc1[N+](=O)[O-] [ACIFLUORFEN]    ≥ 1e-05 M

Q: Param item = C#CCN1C(=O)COc2cc(F)c(N3C(=O)C4=C(CCCC4)C3=O)cc21 [Flumioxazin, flumioxazin] ; retrieve measured IC50.
A: ≥ 1e-05 M
